The origin of these recorded values is the SangsterLogP compilation.

Recorded measurements of logP, one per entry
Assay Endpoint: logP

| Structure String | Assay Endpoint | Value Measured |
| --- | --- | --- |
| CCCCCF | logP | 2.33 |
| CCOC(=O)CC | logP | 1.21 |
| CCCBr | logP | 2.1 |
